Listing of entries alongside the reported inhibition at 10 min, 10 µM.
molecular target: CYP2D6 (Homo sapiens, UniProt P10635); assay: CYP inhibition screening in microsomes; settings: pH 7.4
Sequence (P10635 whole entry): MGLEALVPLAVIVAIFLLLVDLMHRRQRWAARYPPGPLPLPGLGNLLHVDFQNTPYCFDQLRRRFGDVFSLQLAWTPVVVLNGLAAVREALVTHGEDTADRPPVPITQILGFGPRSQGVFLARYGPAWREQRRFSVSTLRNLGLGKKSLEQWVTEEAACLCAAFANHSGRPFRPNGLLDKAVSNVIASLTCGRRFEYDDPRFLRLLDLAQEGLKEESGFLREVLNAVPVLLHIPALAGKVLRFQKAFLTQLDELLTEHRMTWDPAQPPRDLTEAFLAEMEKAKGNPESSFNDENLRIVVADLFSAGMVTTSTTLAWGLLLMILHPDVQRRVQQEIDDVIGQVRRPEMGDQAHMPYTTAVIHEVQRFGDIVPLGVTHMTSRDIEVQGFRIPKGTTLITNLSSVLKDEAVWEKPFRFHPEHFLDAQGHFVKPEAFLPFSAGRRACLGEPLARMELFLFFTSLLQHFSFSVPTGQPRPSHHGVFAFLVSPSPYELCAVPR
Please reply with the bare figure in % and do not write the unit itself.

Nc1ccc(N2CCOCC2)c2nonc12
21.9
Cc1cccc(NCc2ccc(O)c3ncccc23)c1C
-2.6
Cn1c(=O)[nH]c(=O)c2c1nc(S)n2CC(O)COc1ccc(Cl)cc1 (centres unmarked)
0.9
COc1ccc(N2CCN(C(c3ccc(N(C)C)cc3)c3nnnn3C(C)(C)C)CC2)cc1 (centres unmarked)
1.4

Now examine the next entry.
Data request: So what's the measured inhibition at 10 min, 10 µM for this one? CCN(CC)c1ccc(CN2CCc3nc(C)[nH]c(=O)c3C2)c(OC)c1
Data returned: 58.3

---

Assay: Caco-2 monolayer permeability screen
Conditions: human, Caco-2
Procedure: Supplementary Table 3: Caco-2 permeability and BBB-PAMPA permeability For CaCo-2 permeability assay, cells were incubated with 10 µM of these reagents in buffers for 2 h, and the receiver side buffer is removed for analysis by LC/MS/MS. Efflux […] LLOQ: Lower Limit of Quantification; Papp: apparent permeability.
metric.name: efflux ratio at 2 h, 10 µM
Field format: numeric only.

// worked examples, efflux ratio at 2 h, 10 µM included
Cn1c(=O)[nH]c(=O)c2c1nc(S)n2CC(O)COc1ccc(Cl)cc1 (stereo not drawn)
18.2
Cc1cccc(NCc2ccc(O)c3ncccc23)c1C
2.7

# context switch: different compound, same efflux ratio at 2 h, 10 µM
Data request: # input compound: COc1ccc(N2CCN(C(c3ccc(N(C)C)cc3)c3nnnn3C(C)(C)C)CC2)cc1 (stereo not drawn) ; wanted: its efflux ratio at 2 h, 10 µM
Data returned: 0.9

---

experiment: Liver microsomal stability, human; details: Human microsomes, 30 min, 37 °C
metric.name: Mean Remaining Parent (with NADPH) (%)
Answer format: numeric, % implied, no suffix.

In the examples that follow, each entry is paired with its recorded Mean Remaining Parent (with NADPH).
Nc1ccc(N2CCOCC2)c2nonc12 [compound 11]
76
COc1ccc(N2CCN(C(c3ccc(N(C)C)cc3)c3nnnn3C(C)(C)C)CC2)cc1 (stereo not shown) [compound 31]
12
Cn1c(=O)[nH]c(=O)c2c1nc(S)n2CC(O)COc1ccc(Cl)cc1 (stereo not shown) [compound 38]
88

Data request: Form field: reported Mean Remaining Parent (with NADPH) of Cc1cccc(NCc2ccc(O)c3ncccc23)c1C [compound 12]
Data returned: 1

---

molecular target: caspase-8 (Homo sapiens, UniProt Q14790); experiment: IC50 assay with recombinant caspase-8; conditions: mean±s.d.
Sequence (Q14790 217-374 limits assumed, species assumed): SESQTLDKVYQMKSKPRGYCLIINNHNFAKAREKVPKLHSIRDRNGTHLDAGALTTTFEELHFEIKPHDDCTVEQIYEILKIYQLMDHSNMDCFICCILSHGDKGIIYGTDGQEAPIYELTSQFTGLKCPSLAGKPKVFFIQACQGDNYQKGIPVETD
Sequence (Q14790 385-479 limits assumed, species assumed): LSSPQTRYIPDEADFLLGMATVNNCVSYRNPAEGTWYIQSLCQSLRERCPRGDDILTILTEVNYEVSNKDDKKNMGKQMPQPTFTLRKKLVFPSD
pIC50: −log10 of the molar value.
metric.name: pIC50

Nc1ccc(N2CCOCC2)c2nonc12
4.06
CN(C)c1ccc(N2C(=O)C=CC2=O)cc1
< 4.00

Continue with the next compound.
Data request: # lookup: pIC50 of Cc1cccc(NCc2ccc(O)c3ncccc23)c1C
Data returned: < 3.70

---

test: Single-dose pharmacokinetics, IV and oral; details: male, CD-1, mouse, serum, po, 10 mg/kg
metric.name: AUC(0-inf) (ng·h/mL)
Unit ng·h/mL implied. Number only.

Data request: Given Nc1ccc(N2CCOCC2)c2nonc12 , state its recorded AUC(0-inf).
Data returned: 223

---

molecular target: UniProt P11712; experiment: CYP inhibition screening in microsomes; settings: pH 7.4
Sequence (P11712 whole entry): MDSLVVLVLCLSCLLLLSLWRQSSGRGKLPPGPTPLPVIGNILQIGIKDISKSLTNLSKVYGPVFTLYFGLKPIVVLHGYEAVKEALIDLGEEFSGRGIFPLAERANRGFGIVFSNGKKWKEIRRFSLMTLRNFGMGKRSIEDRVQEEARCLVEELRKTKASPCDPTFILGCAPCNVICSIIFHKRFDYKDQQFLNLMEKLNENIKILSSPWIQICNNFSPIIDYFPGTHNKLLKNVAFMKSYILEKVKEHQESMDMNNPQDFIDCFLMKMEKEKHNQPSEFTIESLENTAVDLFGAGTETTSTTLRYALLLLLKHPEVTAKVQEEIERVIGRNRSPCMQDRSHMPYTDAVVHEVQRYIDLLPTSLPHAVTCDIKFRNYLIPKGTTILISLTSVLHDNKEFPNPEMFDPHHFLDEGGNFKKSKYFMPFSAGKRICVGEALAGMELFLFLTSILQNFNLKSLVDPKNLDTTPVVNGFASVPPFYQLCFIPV
metric.name: inhibition at 10 min, 3 µM (%)
Answer in %, number only, no unit symbol.

Below, each entry is followed by its recorded inhibition at 10 min, 3 µM result.
COc1ccc(N2CCN(C(c3ccc(N(C)C)cc3)c3nnnn3C(C)(C)C)CC2)cc1 (centres unmarked)
47.8
Cc1cccc(NCc2ccc(O)c3ncccc23)c1C
4.3
CCN(CC)c1ccc(CN2CCc3nc(C)[nH]c(=O)c3C2)c(OC)c1
4.6
Nc1ccc(N2CCOCC2)c2nonc12
4.3

Now, please, on to the next compound.
Data request: Which inhibition at 10 min, 3 µM is reported for this compound? Cn1c(=O)[nH]c(=O)c2c1nc(S)n2CC(O)COc1ccc(Cl)cc1 (centres unmarked)
Data returned: 15.6
